Tested on: HT-29
Assay: NCI tumour cell line growth inhibition, 48 h
Active and inactive are the calls of the source. Cut-off read from the data, not from the text of the source: active = GI50 up to about 1.1 µM and inactive = higher.
Entries annotated with measured GI50

The examples below pair each entry with its known result.
CC(=O)c1cccc(NC(=O)/C(=N\NC(=S)NN)C2C(=O)Nc3ccccc3[S+]2[O-])c1 (centres undefined)	> 100 µM (inactive)
CCN(CC)CCCNc1nccc2c(C)c3[nH]c4ccncc4c(=O)c3cc12	1.32 µM (inactive)
CCCCCCCCCCCCCCCCNc1ccc2c(c1)OCCOCCOCCOCCO2	2.75 µM (inactive)

Let us move to another entry and its GI50.
Query string: Note GI50 for the molecule shown: "FC(F)(Sc1ncc[nH]1)c1nc2ccccc2o1"
Result string: > 100 µM (inactive)
